MEASURED_TARGET: glutaminase (GAC) (Homo sapiens, UniProt O94925)
Sequence (O94925 55-598 isoform O94925-3 limits assumed): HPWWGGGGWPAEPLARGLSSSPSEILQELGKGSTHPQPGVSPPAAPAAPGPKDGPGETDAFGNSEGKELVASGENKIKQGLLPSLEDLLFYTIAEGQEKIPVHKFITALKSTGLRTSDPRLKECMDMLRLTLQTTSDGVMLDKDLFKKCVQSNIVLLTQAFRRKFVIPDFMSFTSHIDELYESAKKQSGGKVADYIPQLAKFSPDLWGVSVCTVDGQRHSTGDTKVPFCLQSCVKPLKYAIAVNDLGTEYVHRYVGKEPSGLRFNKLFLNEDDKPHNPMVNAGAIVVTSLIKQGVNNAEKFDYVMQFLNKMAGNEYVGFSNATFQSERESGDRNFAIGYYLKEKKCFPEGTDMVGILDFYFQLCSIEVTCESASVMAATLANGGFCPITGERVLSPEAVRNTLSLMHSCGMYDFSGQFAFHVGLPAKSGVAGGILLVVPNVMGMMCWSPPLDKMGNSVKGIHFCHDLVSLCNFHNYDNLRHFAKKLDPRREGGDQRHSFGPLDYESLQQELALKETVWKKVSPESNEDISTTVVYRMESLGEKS
RUN_DESCRIPTION: glutaminase coupled endpoint assay (Example A)
Format: biochemical
COND: inhibition of glutaminase; IC50 tested in an assay of Example A or Example B
pIC50: −log10 of the molar value.
READOUT_LABEL: pIC50

A selection of reference data follows.
{"COMPOUND": "O=C(Cc1ccccc1)Nc1nnc(CCCSCc2nnc(NC(=O)Cc3ccccc3)s2)s1 [Compound 6]", "pIC50": "6.00 to 6.30"}
{"COMPOUND": "O=C(Cc1cccc2ccccc12)Nc1nnc(CCCCc2nnc(NC(=O)Cc3cccc4ccccc34)s2)s1 [Compound 51]", "pIC50": "6.30 to 7.00"}
{"COMPOUND": "O=C(Cc1ccccn1)Nc1nnc(CCSCc2nnc(NC(=O)Cc3ccccn3)s2)s1 [Compound 57]", "pIC50": "> 7.00"}

Consider the following items and state reported pIC50 for each.
1. COc1ccc(CC(=O)Nc2nnc(CCCCc3nnc(NC(=O)Cc4ccc(OC)c(OC)c4)s3)s2)cc1OC [Compound 63]
2. NCCOc1ccc(CC(=O)Nc2nnc(CCS(=O)(=O)CCc3nnc(NC(=O)Cc4ccccc4)s3)s2)cc1 [Compound 29]

(A)
> 7.00
> 7.00

State recorded pIC50 for all listed compounds.
1. O=C(Cc1noc2ccccc12)Nc1nnc(CCCCc2nnc(NC(=O)Cc3noc4ccccc34)s2)s1 [Compound 60]
2. O=C(CCC(=O)c1ccccc1)Nc1nnc(CCCCc2nnc(NC(=O)CCC(=O)c3ccccc3)s2)s1 [Compound 112]
3. O=C(Nc1nnc(CCCCc2nnc(NC(=O)C3CC3)s2)s1)C1CC1 [Compound 105]
4. NCCCOc1ccc(CC(=O)Nc2nnc(CCS(=O)(=O)CCc3nnc(NC(=O)Cc4ccccc4)s3)s2)cc1 [Compound 36]
5. O=C(Cc1ccccc1)Nc1nnc(CC[S+]([O-])CCc2nnc(NC(=O)Cc3ccccc3)s2)s1 [Compound 7]

(A)
1. > 7.00
2. 6.30 to 7.00
3. 5.00 to 6.00
4. > 7.00
5. 6.30 to 7.00

----------
MEASURED_TARGET: glutaminase (GAC) (Homo sapiens)
Sequence (O94925 55-598 isoform O94925-3 limits assumed): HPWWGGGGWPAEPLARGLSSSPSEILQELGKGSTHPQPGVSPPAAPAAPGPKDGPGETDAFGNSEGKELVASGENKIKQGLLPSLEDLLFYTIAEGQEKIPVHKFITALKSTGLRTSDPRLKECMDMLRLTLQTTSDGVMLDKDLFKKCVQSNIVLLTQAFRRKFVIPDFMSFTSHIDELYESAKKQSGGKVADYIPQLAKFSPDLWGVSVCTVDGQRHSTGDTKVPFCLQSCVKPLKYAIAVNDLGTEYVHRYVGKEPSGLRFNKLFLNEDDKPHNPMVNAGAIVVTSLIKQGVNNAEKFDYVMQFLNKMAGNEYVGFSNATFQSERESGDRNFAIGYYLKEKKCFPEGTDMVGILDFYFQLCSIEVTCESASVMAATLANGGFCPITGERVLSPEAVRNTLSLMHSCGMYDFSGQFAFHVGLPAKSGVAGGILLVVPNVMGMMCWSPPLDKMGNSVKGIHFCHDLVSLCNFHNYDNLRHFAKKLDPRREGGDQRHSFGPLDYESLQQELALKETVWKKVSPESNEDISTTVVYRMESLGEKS
RUN_DESCRIPTION: glutaminase coupled endpoint assay (Example A)
Assay type: biochemical
COND: inhibition of glutaminase; IC50 tested in an assay of Example A or Example B
Procedure: In this example, the enzymatic activity of glutaminase is measured through a coupled endpoint assay. […] The glutamate produced is converted to 2-OG by a kinetic excess of glutamate dehydrogenase. […] However, a kinetic excess of the third coupling enzyme, diaphorase, recycles NAD from NADH to keep the NAD concentration constant during the timecourse of the assay. […]
pIC50: −log10 of the molar value.
READOUT_LABEL: pIC50

Recorded pIC50, per entry:
{"ITEM_SMILES": "COc1ccc2[nH]cc(CC(=O)Nc3nnc(CCCCc4nnc(NC(=O)Cc5c[nH]c6ccc(OC)cc56)s4)s3)c2c1", "RESULT": "> 7.00"}
{"ITEM_SMILES": "CC(C)CC(=O)Nc1nnc(CCCCc2nnc(NC(=O)CC(C)C)s2)s1", "RESULT": "6.00 to 6.30"}

Could you now consider this next molecule?
(Q) Fill blank: measured pIC50 of the molecule O=C(Cc1ccccn1)Nc1nnc(CCS(=O)(=O)CCc2nnc(NC(=O)Cc3ccccn3)s2)s1 is ____.
(A) > 7.00
